Entry source: ChEMBL document CHEMBL3045862

# assay_explanation: Elimination half life in Macaca mulatta (Rhesus monkey) at 50 mg/kg, po
# Type: ADME, organism-based
# Parameters: dose 50 mg/kg, route oral
# condition_notes: in vivo, read-out: beta t1/2 (converted)
// reported half-life for each item listed
# output: bare number, implied unit h

compound	readout_number
CCO[C@@H]1O[C@@H]2O[C@]3(C)CC[C@H]4[C@H](C)CC[C@@H]([C@H]1C)[C@@]24OO3 [ALPHA-ARTEETHER]	2.7

half-life in this record for CCO[C@H]1O[C@@H]2O[C@@]3(C)CC[C@H]4[C@H](C)CC[C@@H]([C@H]1C)[C@@]24OO3 [ARTEMOTIL] : 4.4
